Hi there, I'd appreciate the recorded Stimulation Index, FXa generation assay, 1600 nM OA antibody for every entry that follows.
Target: human plasma-derived Factor IXa (human, UniProt P00740 47-191; P00740 227-461)
Sequence (P00740 47-191, chain 1 of 2): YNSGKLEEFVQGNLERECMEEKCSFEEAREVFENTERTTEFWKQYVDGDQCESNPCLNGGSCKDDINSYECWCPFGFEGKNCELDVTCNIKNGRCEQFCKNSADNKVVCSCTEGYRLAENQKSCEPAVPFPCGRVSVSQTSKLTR
Sequence (P00740 227-461, chain 2 of 2): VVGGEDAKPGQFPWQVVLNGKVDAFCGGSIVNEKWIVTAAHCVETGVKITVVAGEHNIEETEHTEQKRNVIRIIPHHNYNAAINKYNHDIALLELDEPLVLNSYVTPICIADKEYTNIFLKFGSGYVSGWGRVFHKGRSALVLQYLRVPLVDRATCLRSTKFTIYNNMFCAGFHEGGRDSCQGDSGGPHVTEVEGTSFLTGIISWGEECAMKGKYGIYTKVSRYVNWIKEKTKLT
Test: cell-based or functional assay
Be sure to follow the number with its unit.

Entry one-armed (OA) mAb01-9016 (antibody, V domains shown) VH: EVQLVESGGGLVQPGRSLKLSCAASGFTFDDYAMHWVRQVPGKGLEWVSGISWRGDIGGYVDSVKGRFTISRDNAKNSLYLQLNSLRAEDTALYYCVKSYGSGSFYNAFDSWGQGTLVTVSS VL: DIQMTQSPSTLSASAGDRVTITCRASQSISSWLAWYQQKPGKAPKFLIYKASRLERGVPSRFSGSGSGTEFSLTISSLQPDDFATYYCLEYSSYIRTFGQGTKVEIK ; Stimulation Index, FXa generation assay, 1600 nM OA antibody = 5900 fold

Could you now consider this next binder?
Entry one-armed (OA) mAb11-1495 (antibody, V domains shown) VH: EVQLVESGGGLVQPGRSLRLSCAASGFTFHDYAMHWVRQVPGKGLEWVSGISWRGDIGGYAKSVKGRFTISRDNAKNSLYLQMNSLRAEDTALYYCVKSYGSGSFYNAFDSWGQGTLVTVSS VL: DIQMTQSPSTLSASVGDRVTITCRASQSISSWLAWYQQKPGKAPKFLIYKASKLDRGTPSRFSGSGSGTEFTLTISSLQPDDFATYYCLEYSSYIRTFGQGTKVEIK , Stimulation Index, FXa generation assay, 1600 nM OA antibody reported as 7690 fold
